pIC50, UniProtKB Q92887, per-entry values.
Sequence (Q92887 whole entry): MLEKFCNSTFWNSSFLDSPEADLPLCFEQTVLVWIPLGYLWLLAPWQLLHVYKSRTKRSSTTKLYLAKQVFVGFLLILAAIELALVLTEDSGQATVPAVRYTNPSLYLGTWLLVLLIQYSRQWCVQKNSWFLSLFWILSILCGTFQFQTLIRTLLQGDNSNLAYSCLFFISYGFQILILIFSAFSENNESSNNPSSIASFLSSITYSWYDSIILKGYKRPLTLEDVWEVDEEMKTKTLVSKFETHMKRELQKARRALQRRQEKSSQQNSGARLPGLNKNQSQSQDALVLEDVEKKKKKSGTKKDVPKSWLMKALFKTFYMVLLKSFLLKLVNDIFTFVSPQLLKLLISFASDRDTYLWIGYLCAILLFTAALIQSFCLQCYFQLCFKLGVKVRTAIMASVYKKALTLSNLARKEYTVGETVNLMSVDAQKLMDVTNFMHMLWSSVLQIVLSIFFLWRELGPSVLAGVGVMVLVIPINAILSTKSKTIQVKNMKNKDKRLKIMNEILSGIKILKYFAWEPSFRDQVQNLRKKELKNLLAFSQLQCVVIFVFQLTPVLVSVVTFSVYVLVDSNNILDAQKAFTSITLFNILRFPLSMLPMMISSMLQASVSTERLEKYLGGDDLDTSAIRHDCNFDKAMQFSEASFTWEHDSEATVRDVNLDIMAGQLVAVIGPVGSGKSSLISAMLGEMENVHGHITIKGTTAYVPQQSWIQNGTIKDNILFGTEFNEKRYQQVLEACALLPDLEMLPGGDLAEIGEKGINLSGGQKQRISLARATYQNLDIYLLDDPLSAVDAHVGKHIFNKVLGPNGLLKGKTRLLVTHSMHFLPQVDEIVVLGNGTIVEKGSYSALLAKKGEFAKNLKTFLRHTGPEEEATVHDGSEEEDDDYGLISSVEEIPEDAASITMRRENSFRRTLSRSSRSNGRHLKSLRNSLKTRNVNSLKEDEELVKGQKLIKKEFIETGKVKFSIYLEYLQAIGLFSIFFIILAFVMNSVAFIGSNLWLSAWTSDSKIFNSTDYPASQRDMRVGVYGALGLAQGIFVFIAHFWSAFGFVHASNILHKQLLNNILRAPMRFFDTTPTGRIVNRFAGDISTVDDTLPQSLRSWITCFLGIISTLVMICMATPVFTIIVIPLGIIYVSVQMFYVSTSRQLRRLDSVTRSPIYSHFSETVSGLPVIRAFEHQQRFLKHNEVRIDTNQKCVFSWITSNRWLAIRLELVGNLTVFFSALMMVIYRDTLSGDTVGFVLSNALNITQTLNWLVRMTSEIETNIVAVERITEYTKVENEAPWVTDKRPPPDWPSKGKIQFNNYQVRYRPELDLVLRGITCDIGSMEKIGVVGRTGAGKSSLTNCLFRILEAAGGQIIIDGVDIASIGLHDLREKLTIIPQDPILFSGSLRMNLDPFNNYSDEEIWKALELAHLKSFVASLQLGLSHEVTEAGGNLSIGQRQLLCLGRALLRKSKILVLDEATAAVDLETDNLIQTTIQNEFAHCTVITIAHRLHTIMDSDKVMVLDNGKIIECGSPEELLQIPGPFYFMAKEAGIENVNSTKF
pIC50: −log10 of the molar value. Starred links: 1 amine or outer side, 2 acyl side, 3 side chain; linkers in the order of their positions; H or OH if unused. Non-standard residues stand in square brackets, D forms with d. Residues, ends and D or L forms follow the SMILES beside them. X7 = C[C@H](COCCN1CCS(=O)(=O)CC1)[C@@H](C(=O)[*:2])N(C)[*:1]; MeBmt = C/C=C/C[C@@H](C)[C@@H](O)[C@H](NC)C(=O)O; X2 = COCC[C@@H](C)[C@@H](C(=O)[*:2])N(C)[*:1]; NMeL = CN[C@@H](CC(C)C)C(=O)O; NMeV = CN[C@H](C(=O)O)C(C)C; dNMeA = CN[C@H](C)C(=O)O; Abu = CC[C@H](N)C(=O)O
MEASURED PARAMETER: pIC50

compound="C/C=C/C[C@@H](C)[C@@H](O)[C@H]1C(=O)N[C@@H](CC)C(=O)N(C)[C@H](C)C(=O)N(C)[C@@H]([C@H](C)COCCN2CCS(=O)(=O)CC2)C(=O)N[C@@H](C(C)C)C(=O)N(C)[C@@H](CC(C)C)C(=O)N[C@@H](C)C(=O)N[C@H](C)C(=O)N(C)[C@@H](CC(C)C)C(=O)N(C)[C@@H](CC(C)C)C(=O)N(C)[C@@H](C(C)C)C(=O)N1C [Compound 2.8.2] (cyclo(A[dA][NMeL][NMeL][NMeV][MeBmt][Abu][dNMeA][X7]V[NMeL]))" value=4.55
compound="C/C=C/C[C@@H](C)[C@@H](O)[C@H]1C(=O)N[C@@H](CC)C(=O)N(C)[C@H](C)C(=O)N(C)[C@@H]([C@H](C)CCOC)C(=O)N[C@@H](C(C)C)C(=O)N(C)[C@@H](CC(C)C)C(=O)N[C@@H](C)C(=O)N[C@H](C)C(=O)N(C)[C@@H](CC(C)C)C(=O)N(C)[C@@H](CC(C)C)C(=O)N(C)[C@@H](C(C)C)C(=O)N1C [Compound 2.13] (cyclo(A[dA][NMeL][NMeL][NMeV][MeBmt][Abu][dNMeA][X2]V[NMeL]))" value=4.89
